Hello, the source for this data is PubChem BioAssay (NCI), in case you need it.

system: MALME-3M melanoma; assay: NCI tumour cell line growth inhibition, 48 h
Readout Name: GI50

INSERT INTO results (compound, reported_value) VALUES
  ('CC(=O)OC[C@]1(C)C=C2C(=O)[C@](C)(O)C3(CC3)C(C)=C2[C@H]1OC(=O)N(C)CCN(C)C(=O)OC(C)(C)C', '0.784 µM'),
  ('Cn1cc(C2=C(c3cn(CCCO)c4ccccc34)C(=O)NC2=O)c2ccccc21', '8.52 µM'),
  ('COc1ccc(/C=N/C2=C(C#N)C(c3ccccc3)c3c(ccc4ccccc34)O2)cc1 (centres undefined)', '0.649 µM');

Measured GI50 of CC(C)[C@]12O[C@H]1[C@@H]1O[C@]13[C@]1(O[C@H]1C[C@H]1C4=C(CC[C@@]13C)C(=O)OC4)[C@@H]2OC(=O)CN(C)C : 0.0193 µM

Measured GI50 of CN([O-])c1nc(N(C)[O-])nc(N2CCOCC2)n1.CN([O-])c1nc(N(C)[OH2+])nc(N2CCOCC2)n1.[Fe+3] : 54.9 µM

Measured GI50 of Clc1ccc(/C=C2\CCCC3C2=Nc2ccccc2NC3c2ccc(Cl)cc2)cc1 (centres undefined) : 16.8 µM

Measured GI50 of CCOC(=O)c1cc2c(c3ccsc13)C1(C)CCC3c4ccc(OC)cc4CCC3C1C2 (centres undefined) : > 100 µM

Measured GI50 of Clc1ccc(C2c3ccccc3-c3nccn32)c(Cl)c1 (centres undefined) : 10.6 µM

Measured GI50 of COc1ccc2c(c1)C(=O)c1c-2n(CCCNCCO)c(=O)c2ccccc12 : 0.178 µM

* * *

Reported GI50 values for a set of compounds
tested on: KM12 colon; test: NCI tumour cell line growth inhibition, 48 h

INSERT INTO measurements (compound, readout_name, reported_value) VALUES
  ('COc1ccc2nc3cc(Cl)ccc3c(NCCCCCN3CCCCC3)c2c1', 'GI50', '0.0576 µM');

Measured GI50 of O=C1c2ccccc2C(=O)c2c(N=Nc3[nH]c(=S)[nH]c3O)cccc21 : 0.454 µM

Measured GI50 of FC(F)(F)c1ccc(-c2cncn2-c2ccccc2)cc1 : 20.6 µM

* * *

test system: UO-31 renal; assay: NCI tumour cell line growth inhibition, 48 h
Reported TGI values for a set of compounds

Measured TGI of NC(N)=C1CN(C2CCCCC2)C(=O)NC1=O : > 100 µM

Measured TGI of CC1=C(C(=O)CC(=O)C(=O)Nc2ccccc2C(F)(F)F)Sc2ccccc2N1 : 61.7 µM

Measured TGI of CCCCc1ccc(Nc2nc(=S)c3ncn(COCCO)c3[nH]2)cc1 : > 100 µM

* * *

system: OVCAR-5 ovarian; assay: NCI tumour cell line growth inhibition, 48 h
Reported TGI values for a set of compounds
Output spec: scalar in µM, unitless text.

Solved entries:
INSERT INTO measurements (compound, readout_name, output_unit, reported_value) VALUES
  ('COc1ccc(/C=N/C2=C(C#N)C(c3ccccc3)c3c(ccc4ccccc34)O2)cc1 (stereo unspecified)', 'TGI', 'µM', 37.7),
  ('CCCCCCCCCCCC[n+]1c(C)cc(N)c2ccccc21', 'TGI', 'µM', 3.28);

Value sought: TGI, system OVCAR-5 ovarian, item c1ccc2c(c1)SC1=Nc3sc4ccccc4[n+]3CN12 . Result: 71.1

Value sought: TGI, system OVCAR-5 ovarian, item O=C(OCCN1CCCCCC1)C(c1ccsc1)C1CCCCC1 (stereo unspecified) . Result: 32.5
